# assay.target: Prokineticin receptor 1 (Homo sapiens, UniProt Q8TCW9)
# Sequence (Q8TCW9 whole entry): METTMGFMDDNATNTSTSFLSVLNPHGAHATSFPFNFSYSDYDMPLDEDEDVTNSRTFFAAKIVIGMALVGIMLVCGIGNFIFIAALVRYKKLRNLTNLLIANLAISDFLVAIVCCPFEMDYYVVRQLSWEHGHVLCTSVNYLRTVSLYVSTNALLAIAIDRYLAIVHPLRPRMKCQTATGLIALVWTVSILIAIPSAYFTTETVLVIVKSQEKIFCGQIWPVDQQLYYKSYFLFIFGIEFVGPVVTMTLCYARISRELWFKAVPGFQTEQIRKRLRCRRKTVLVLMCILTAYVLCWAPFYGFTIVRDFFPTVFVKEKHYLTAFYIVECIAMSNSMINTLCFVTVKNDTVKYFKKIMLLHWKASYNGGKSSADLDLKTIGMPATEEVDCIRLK
measured.attribute: Ki (µM)

[[record]]
mol = "CCc1ccc(Cn2c(=O)nc(NCCN=C3NCCN3)n(Cc3ccc(OC)cc3)c2=O)cc1"
value = 4.72


The origin of these recorded values is ChEMBL document CHEMBL1140216.
